Molecular target: human CD33 V196A (human, UniProt P20138 18-364)
Sequence (P20138 18-364 V196A limits assumed): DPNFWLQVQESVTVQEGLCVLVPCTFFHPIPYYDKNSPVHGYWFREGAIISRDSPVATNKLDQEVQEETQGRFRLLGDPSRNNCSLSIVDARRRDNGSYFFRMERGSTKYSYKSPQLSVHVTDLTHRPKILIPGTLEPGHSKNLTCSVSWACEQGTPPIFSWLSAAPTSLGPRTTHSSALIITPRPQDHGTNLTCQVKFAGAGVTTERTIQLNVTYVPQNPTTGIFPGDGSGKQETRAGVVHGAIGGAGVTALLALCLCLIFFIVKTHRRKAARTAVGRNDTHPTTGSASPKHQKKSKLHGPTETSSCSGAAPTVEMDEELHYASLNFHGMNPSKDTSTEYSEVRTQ
Assay: alanine scan, flow cytometry, HEK293-T;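 note: antibody binding to each alanine-substituted CD33 mutant expressed transiently in HEK293-T, read as fluorescence minus background, mean of duplicates, relative to wild-type CD33 set as 100%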
METRIC: Mean % WT Binding
The number alone won't do; follow it with the unit.

Recorded results for 3 binders are shown here.
[
  {
    "BINDER": "Refmab #2 (antibody, V domains shown, In the alanine scan antibodies were used as IgG or Fab) VH: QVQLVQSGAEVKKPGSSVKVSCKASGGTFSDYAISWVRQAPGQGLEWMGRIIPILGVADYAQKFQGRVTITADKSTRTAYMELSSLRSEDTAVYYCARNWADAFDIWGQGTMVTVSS VL: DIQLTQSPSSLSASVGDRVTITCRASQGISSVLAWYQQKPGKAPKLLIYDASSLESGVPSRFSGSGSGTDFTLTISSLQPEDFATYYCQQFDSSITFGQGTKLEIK",
    "Mean % WT Binding": "106%"
  },
  {
    "BINDER": "Refmab #1 (antibody, V domains shown, In the alanine scan antibodies were used as IgG or Fab; also called hP67.6) VH: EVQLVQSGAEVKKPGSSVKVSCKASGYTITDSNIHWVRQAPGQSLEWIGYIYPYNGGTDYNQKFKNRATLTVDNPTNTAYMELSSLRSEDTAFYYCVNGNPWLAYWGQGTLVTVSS VL: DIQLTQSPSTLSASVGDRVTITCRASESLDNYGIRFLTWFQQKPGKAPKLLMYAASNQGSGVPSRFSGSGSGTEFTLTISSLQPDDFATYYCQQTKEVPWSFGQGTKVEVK",
    "Mean % WT Binding": "83.9%"
  },
  {
    "BINDER": "Refmab #3 (antibody, V domains shown, In the alanine scan antibodies were used as IgG or Fab) VH: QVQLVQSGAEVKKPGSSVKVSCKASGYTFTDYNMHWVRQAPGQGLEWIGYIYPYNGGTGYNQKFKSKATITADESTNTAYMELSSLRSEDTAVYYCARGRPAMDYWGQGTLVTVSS VL: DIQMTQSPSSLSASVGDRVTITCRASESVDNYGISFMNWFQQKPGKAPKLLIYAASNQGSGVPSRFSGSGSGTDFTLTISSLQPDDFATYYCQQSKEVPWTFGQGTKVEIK",
    "Mean % WT Binding": "105%"
  }
]

Next item in the queue.
# get_value(readout='Mean % WT Binding', item= Refmab #4 (antibody, V domains shown, In the alanine scan antibodies were used as IgG or Fab) VH: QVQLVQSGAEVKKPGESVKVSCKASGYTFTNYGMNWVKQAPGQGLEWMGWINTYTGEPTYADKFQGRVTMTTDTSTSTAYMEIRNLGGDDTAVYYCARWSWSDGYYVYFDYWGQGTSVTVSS VL: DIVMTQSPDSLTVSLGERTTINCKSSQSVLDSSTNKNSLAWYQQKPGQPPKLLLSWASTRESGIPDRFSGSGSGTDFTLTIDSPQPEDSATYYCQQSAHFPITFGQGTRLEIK )
102%

Where do the numbers come from? From patent US20260242735A1.
